- Test system: bedstraw
- Experimental Protocol: Test B pre/postemergence bedstraw
- Type: in vivo, Galium aparine
- Run Conditions: Postemergence, Rate 62 g/ha; scale 0 to 10, 0 is no effect, 10 is complete control
The reader will find reported Bedstraw plant response rating values listed item by item below.
Lab note: jot the number down without any unit.

Consider the compound shown here: `CC(C)N(C(=O)n1oc(=O)n(-c2ccccc2C(F)(F)F)c1=O)c1ccc(F)cc1` What is its recorded Bedstraw plant response rating?
0

Consider the compound shown here: `CCN(Cc1ccccc1)C(=O)n1oc(=O)n(-c2c(C)cccc2C)c1=O` What is its recorded Bedstraw plant response rating?
0

Consider the compound shown here: `CC(C)N(C(=O)n1oc(=O)n(-c2cnn(C)c2Cl)c1=O)c1ccc(F)cc1` What is its recorded Bedstraw plant response rating?
0

---

- Tested on: pigweed
- Experimental Protocol: Test B pre/postemergence pigweed
- Format: in vivo, Amaranthus retroflexus
- Run Conditions: Preemergence, Rate 500 g/ha; scale 0 (no effect) to 10 (complete control)
Parameter Measured: Redroot pigweed plant response rating
Lab note: jot the number down without any unit.

Examples from the recorded data:
Smiles Text: Cc1cc(C)c(-n2c(=O)on(C(=O)N(c3ccc(Cl)cc3)C(C)C)c2=O)c(C)c1
Assay System: pigweed
Redroot pigweed plant response rating: 3

Smiles Text: CC(C)N(C(=O)n1oc(=O)n(Cc2ccccc2)c1=O)c1ccc(F)cc1F
Assay System: pigweed
Redroot pigweed plant response rating: 10

Consider the compound shown here: `CCN(Cc1ccccc1)C(=O)n1oc(=O)n(-c2c(C)cccc2C)c1=O` What is its recorded Redroot pigweed plant response rating?
0

Consider the compound shown here: `Cc1ccccc1-n1c(=O)on(C(=O)N(c2ccc(F)c(F)c2)C(C)C)c1=O` What is its recorded Redroot pigweed plant response rating?
0

---

The reader will find reported Giant foxtail plant response rating values listed item by item below.
- System: giant foxtail
- Experimental Protocol: Test B pre/postemergence giant foxtail
- Format: in vivo, Setaria faberii
- Run Conditions: Preemergence, Rate 250 g/ha; scale 0 (no effect) to 10 (complete control)
Lab note: jot the number down without any unit.

Examples from the recorded data:
Molecule: C=C(Cn1c(=O)on(C(=O)N(c2ccc(F)cc2)C(C)C)c1=O)C(=O)OC [Compound 732]
Data Value: 0
//
Molecule: CC(C)N(C(=O)n1oc(=O)n(Cc2nnc(-c3ccccc3)o2)c1=O)c1ccccc1 [Compound 716]
Data Value: 0
//
Molecule: CC(C)N(C(=O)n1oc(=O)n(C(C)C2=NOCC2)c1=O)c1ccc(F)cc1 (racemic) [Compound 721]
Data Value: 10

Now consider a different molecule.
Consider the molecule shown here: CCOC(CC)n1c(=O)on(C(=O)N(c2ccc(F)cc2F)C(C)C)c1=O (stereo not shown) [Compound 774] What is its recorded Giant foxtail plant response rating?
0

---

The reader will find reported Blackgrass plant response rating (0 to 10 scale) values listed item by item below.
- System: blackgrass
- Experimental Protocol: Test B pre/postemergence blackgrass
- Format: in vivo, Alopecurus myosuroides
- Run Conditions: Preemergence, Rate 125 g/ha
Lab note: jot the number down without any unit.

Examples from the recorded data:
Compound: Cc1cccc(C(C)(C)C)c1-n1c(=O)on(C(=O)N(c2ccc(F)cc2)C(C)C)c1=O
Data Value: 0
--
Compound: CC(C)N(C(=O)n1oc(=O)n(C2CCCO2)c1=O)c1ccc(F)cc1 (stereo not shown)
Data Value: 0
--
Compound: CC(C)N(C(=O)n1oc(=O)n(Cc2nnsc2Cl)c1=O)c1ccccc1
Data Value: 6

Now consider a different compound.
Consider the compound shown here: Cc1ccccc1-n1c(=O)on(C(=O)N(c2ccc(Cl)cc2)C(C)C2CC2)c1=O (stereo not shown) What is its recorded Blackgrass plant response rating (0 to 10 scale)?
0

---

- System: giant foxtail
- Experimental Protocol: Test B pre/postemergence giant foxtail
- Type: in vivo, Setaria faberii
- Run Conditions: Preemergence, Rate 125 g/ha; 0 is no effect, 10 is complete control
Parameter Measured: Giant foxtail plant response rating (0 to 10 scale)

Examples from the recorded data:
Compound: CCN(CC)C(=O)n1oc(=O)n(Cc2ccccc2)c1=O
Data Value: 0
--
Compound: CC1CCCCC1n1c(=O)on(C(=O)N(c2ccccc2)C(C)C)c1=O (centres unmarked)
Data Value: 7
--
Compound: Cc1nsc(C)c1-n1c(=O)on(C(=O)N(c2ccc(Cl)cc2)C(C)C)c1=O
Data Value: 0

Consider the compound shown here: `CC(C)N(C(=O)n1oc(=O)n(-c2ccc(OC(F)(F)F)cc2)c1=O)c1ccc(F)cc1` What is its recorded Giant foxtail plant response rating (0 to 10 scale)?
6

Consider the compound shown here: `CC(C)N(C(=O)n1oc(=O)n(N(C)C)c1=O)c1ccc(F)cc1` What is its recorded Giant foxtail plant response rating (0 to 10 scale)?
10

---

- Tested on: giant foxtail
- Experimental Protocol: Test B pre/postemergence giant foxtail
- Format: in vivo, Setaria faberii
- Run Conditions: Preemergence, Rate 125 g/ha; scale 0 to 10 (0 no effect, 10 complete control)
The reader will find reported Plant response rating, Giant foxtail values listed item by item below.

Examples from the recorded data:
Compound: COc1ccccc1-n1c(=O)on(C(=O)N(c2ccc(F)cc2F)C(C)C)c1=O [Compound 31]
Plant response rating, Giant foxtail: 8
//
Compound: CCCn1c(=O)on(C(=O)N(c2ccccc2)C(C)C)c1=O [Compound 92]
Plant response rating, Giant foxtail: 10
//
Compound: CC(C)N(C(=O)n1oc(=O)n(-c2ccccc2C(F)(F)F)c1=O)c1ccc(F)cc1 [Compound 15]
Plant response rating, Giant foxtail: 8
//
Compound: Cc1ccccc1-n1c(=O)on(C(=O)N(c2ccc(F)c(F)c2)C(C)C)c1=O [Compound 48]
Plant response rating, Giant foxtail: 9

Now consider a different compound.
Consider the compound shown here: CC(C)N(C(=O)n1oc(=O)n(-c2cccc3c2CCCC3)c1=O)c1ccc(F)cc1 [Compound 90] What is its recorded Plant response rating, Giant foxtail?
8

---

- System: surinam grass
- Experimental Protocol: Test B pre/postemergence surinam grass
- Type: in vivo, Brachiaria decumbens
- Run Conditions: Postemergence, Rate 125 g/ha; scale of 0 to 10 where 0 is no effect and 10 is complete control
Parameter Measured: Plant response rating, B. signalgrass

Compound: COC(=O)C(C)n1c(=O)on(C(=O)N(c2ccc(F)cc2)C(C)C)c1=O (centres unmarked)
Data Value: 0

Compound: C=C(Cn1c(=O)on(C(=O)N(c2ccccc2)C(C)C)c1=O)c1ccc(F)cc1
Data Value: 0

Consider the compound shown here: `CC(C)N(C(=O)n1oc(=O)n(CCC(F)(F)F)c1=O)c1ccccc1` What is its recorded Plant response rating, B. signalgrass?
3

Consider the compound shown here: `CC(C)N(C(=O)n1oc(=O)n(CC2=NOCCC2)c1=O)c1ccc(F)cc1F` What is its recorded Plant response rating, B. signalgrass?
2

Consider the compound shown here: COC(=O)C(C)n1c(=O)on(C(=O)N(c2ccc(Cl)cc2)C(C)C)c1=O (centres unmarked) What is its recorded Plant response rating, B. signalgrass?
0

---

The reader will find reported Sugarbeets plant response rating values listed item by item below.
- System: sugar beet
- Experimental Protocol: Test B pre/postemergence sugar beet
- Assay type: in vivo, Beta vulgaris
- Run Conditions: Postemergence, Rate 250 g/ha; scale of 0 to 10, 0 is no effect, 10 is complete control
Lab note: jot the number down without any unit.

Examples from the recorded data:
Smiles Text: C=C(Cn1c(=O)on(C(=O)N(c2ccccc2)C(C)C)c1=O)c1ccc(F)cc1
Parameter Measured: Sugarbeets plant response rating
Data Value: 0
--
Smiles Text: CCCCn1c(=O)on(C(=O)N(c2ccc(F)cc2F)C(C)C)c1=O
Parameter Measured: Sugarbeets plant response rating
Data Value: 7
--
Smiles Text: COCCn1c(=O)on(C(=O)N(c2ccccc2)C(C)C)c1=O
Parameter Measured: Sugarbeets plant response rating
Data Value: 0
--
Smiles Text: CC(C)N(C(=O)n1oc(=O)n(CC2=NOCCC2)c1=O)c1ccc(F)cc1F
Parameter Measured: Sugarbeets plant response rating
Data Value: 0

Now consider a different compound.
Consider the compound shown here: `CC(C)N(C(=O)n1oc(=O)n(CCC(F)(F)F)c1=O)c1ccccc1` What is its recorded Sugarbeets plant response rating?
5

---

- Test system: corn
- Experimental Protocol: Test B pre/postemergence corn
- Format: in vivo, Zea mays
- Run Conditions: Preemergence, Rate 250 g/ha
- Description: […] At the same time, these crop and weed species were also treated with postemergence applications of test chemicals formulated in the same manner. […] Treated plants and controls were maintained in a greenhouse for twelve to sixteen days, after which all species were compared to controls and visually evaluated. […]
The reader will find reported Corn plant response rating (0 to 10 scale) values listed item by item below.
Lab note: jot the number down without any unit.

Compound: CC(C)N(C(=O)n1oc(=O)n(CCC2OCCO2)c1=O)c1ccccc1
Data Value: 5

Consider the compound shown here: `CC(C)N(C(=O)n1oc(=O)n(CC(=O)N(C)C)c1=O)c1ccc(F)cc1` What is its recorded Corn plant response rating (0 to 10 scale)?
0

Consider the compound shown here: `CC(C)N(C(=O)n1oc(=O)n(CCCCF)c1=O)c1ccc(Cl)cc1` What is its recorded Corn plant response rating (0 to 10 scale)?
0

Consider the compound shown here: CCC(C)n1c(=O)on(C(=O)N(c2ccccc2)C(C)C)c1=O (centres unmarked) What is its recorded Corn plant response rating (0 to 10 scale)?
8

Consider the compound shown here: `CC(C)N(C(=O)n1oc(=O)n(CCC(F)(F)F)c1=O)c1ccc(F)cc1F` What is its recorded Corn plant response rating (0 to 10 scale)?
4
